These measurements were taken from paper PMC10916352.

Test: 3T3 Neutral Red uptake cytotoxicity and phototoxicity assay
Settings: mouse, Balb/c 3T3 fibroblasts (clone 31), Viability (%), –Irr, 100 μg/mL
measurement.type: viability at 82 min, 100 μg/mL (%)
Field: numeric (%). Do not append units.

Lab note: "FC(F)(F)C1(c2ccc(C(c3ccc(C4(C(F)(F)F)N=N4)cc3)(C(F)(F)F)C(F)(F)F)cc2)N=N1" gave viability at 82 min, 100 μg/mL of 100

----------
Assay: In vitro skin irritation test, MTT viability
Type: cell-based, human
Conditions: human; 15 min exposure, 42 h post-incubation, relative to phosphate buffered saline; read-out: Cell Viability (%)
measurement.type: viability at 15 min (%)
Give a bare numeral; the unit % is implied.

Entry "FC(F)(F)C1(c2ccc(C(c3ccc(C4(C(F)(F)F)N=N4)cc3)(C(F)(F)F)C(F)(F)F)cc2)N=N1" — recorded viability at 15 min = 106
